subject of test: lactate dehydrogenase (LDH) (Oryctolagus cuniculus, UniProt P13491)
Construct: purchased Sigma-Aldrich; host or cells: rabbit muscle
assay name: Single-enzyme assay system, LDH activity (absorbance 340 nm)
Format: biochemical, rabbit
recorded endpoint: pIC50
Friendly reminder that pIC50 comes from taking -log10 of the concentration in mol/L.

Q. Can you share its pIC50? I mean this molecule: CCOC(=O)CC(SP(=S)(OC)OC)C(=O)OCC (stereo not shown) [Malathion, malathion]
A. 2.97

* * *

subject of test: lactate dehydrogenase + NAD(P)H:FMN-oxidoreductase + luciferase (LDH + Red + Luc)
assay name: Three-enzyme assay system LDH + Red + Luc, luminescence intensity
Type: biochemical, rabbit; Vibrio fischeri; Photobacterium leiognathi
assay conditions: active ingredient alone (AIa)
recorded endpoint: IC50, LDH + Red + Luc (µg/mL)
Dear colleague, please return just the value in µg/mL, with no unit written.

Q. Using the record for CC(C)C(C(=O)OC(C#N)c1cccc(Oc2ccccc2)c1)c1ccc(Cl)cc1 (stereo not drawn) [Fenvalerate, fenvalerate] , report its IC50, LDH + Red + Luc.
A. 31.7

Q. I have this compound here, CC1(C)C(C=C(Cl)Cl)C1C(=O)OC(C#N)c1cccc(Oc2ccccc2)c1 (stereo not drawn) [Cypermethrin, cypermethrin] , and I need its recorded IC50, LDH + Red + Luc.
A. 6.5

Q. Quick one: IC50, LDH + Red + Luc of CC1(C)[C@H](C(=O)O[C@H](C#N)c2cccc(Oc3ccccc3)c2)[C@@H]1C=C(Br)Br [Deltamethrin, deltamethrin] ?
A. 7.7

Q. Item CCOP(=S)(OCC)Oc1cc(C)nc(C(C)C)n1 [Diazinon, diazinon] has what recorded IC50, LDH + Red + Luc?
A. 3351

Q. Could you tell me which IC50, LDH + Red + Luc is on file for O=C(O)CNCP(=O)(O)O [Glyphosate, glyphosate] ?
A. 935

* * *

Give IC50, ADH + Red + Luc for every item shown.
subject of test: alcohol dehydrogenase + NAD(P)H:FMN-oxidoreductase + luciferase (ADH + Red + Luc)
assay name: Three-enzyme assay system ADH + Red + Luc, luminescence intensity
Format: biochemical, baker's yeast; Vibrio fischeri; Photobacterium leiognathi
assay conditions: active ingredient alone (AIa)
I only need the number, in µg/mL, no unit after it.

Q. Entry `CC1(C)[C@H](C(=O)O[C@H](C#N)c2cccc(Oc3ccccc3)c2)[C@@H]1C=C(Br)Br` : reported IC50, ADH + Red + Luc = ?
A. 1.0

Q. Quick check: IC50, ADH + Red + Luc of `CCOP(=S)(OCC)Oc1cc(C)nc(C(C)C)n1` ?
A. 11

Q. # lookup: IC50, ADH + Red + Luc of CC(C)C(C(=O)OC(C#N)c1cccc(Oc2ccccc2)c1)c1ccc(Cl)cc1 (stereo not drawn) [Fenvalerate, fenvalerate]
A. 1.6

Q. IC50, ADH + Red + Luc lookup needed for CC1(C)C(C=C(Cl)Cl)C1C(=O)OC(C#N)c1cccc(Oc2ccccc2)c1 (stereo not drawn) , thanks.
A. 0.2

Q. # get_value(readout='IC50, ADH + Red + Luc', item= O=C(O)CNCP(=O)(O)O [Glyphosate, glyphosate] )
A. 3200

* * *

subject of test: NAD(P)H:FMN-oxidoreductase + luciferase (Red + Luc)
assay name: Coupled enzyme assay system Red + Luc, luminescence intensity
Format: biochemical, Vibrio fischeri; Photobacterium leiognathi
assay conditions: active ingredient alone (AIa)
Protocol: The activities of the multi-enzyme assay systems were determined from the values of the luminescence intensity in the presence of the control or the analyte solutions. […] The effect of the pesticide active ingredients and solvents on the multi-enzyme reactions was estimated from the residual luminescence intensity calculated according to the formula I = (It/Ic)∙100%, where Ic and It are the average values of luminescence intensity in the presence of the control or analyte solution, respectively. […]
Please provide measured IC50, Red + Luc for the entries that follow.
Number in µg/mL, nothing else.

Q. Look up IC50, Red + Luc for this compound: CC(C)C(C(=O)OC(C#N)c1cccc(Oc2ccccc2)c1)c1ccc(Cl)cc1 (stereo not drawn) [Fenvalerate, fenvalerate]
A. 4.8

Q. Bench note: what IC50, Red + Luc did `CCOP(=S)(OCC)Oc1cc(C)nc(C(C)C)n1` show?
A. 2234

Q. For the compound CC1(C)C(C=C(Cl)Cl)C1C(=O)OC(C#N)c1cccc(Oc2ccccc2)c1 (stereo not drawn) , what IC50, Red + Luc is on record?
A. 1.8

Q. Quick one: IC50, Red + Luc for O=C(O)CNCP(=O)(O)O [Glyphosate, glyphosate] ?
A. 288

Q. Query: IC50, Red + Luc; subject: `CC1(C)[C@H](C(=O)O[C@H](C#N)c2cccc(Oc3ccccc3)c2)[C@@H]1C=C(Br)Br`
A. 3.7
